System: Superantigen positive Staphylococcus aureus (n = 52)
experimental_protocol: microbe, parasite or virus in culture
settings: 18 h
parameter: log10(MIC90) (log10 of the value in µg/mL)
Kindly note that the scale is log10 and the underlying MIC90 is in µg/mL.

# count of solved cases: 5
{"molecule": "CN(C)[C@@H]1C(O)=C(C(N)=O)C(=O)[C@@]2(O)C(O)=C3C(=O)c4c(O)cccc4[C@@](C)(O)[C@H]3C[C@@H]12 [Tetracycline, tetracycline]", "val": 1.51}
{"molecule": "CC(=O)NC[C@H]1CN(c2ccc(N3CCOCC3)c(F)c2)C(=O)O1 [Linezolid, linezolid]", "val": 0.30}
{"molecule": "CN[C@H](CC(C)C)C(=O)N[C@H]1C(=O)N[C@@H](CC(N)=O)C(=O)N[C@H]2C(=O)N[C@H]3C(=O)N[C@H](C(=O)N[C@H](C(=O)O)c4cc(O)cc(O)c4-c4cc3ccc4O)[C@H](O)c3ccc(c(Cl)c3)Oc3cc2cc(c3O[C@@H]2O[C@H](CO)[C@@H](O)[C@H](O)[C@H]2O[C@H]2C[C@](C)(N)[C@H](O)[C@H](C)O2)Oc2ccc(cc2Cl)[C@H]1O [Vancomycin, vancomycin]", "val": 0.00}
{"molecule": "CC1(C)S[C@@H]2[C@H](NC(=O)[C@H](N)c3ccccc3)C(=O)N2[C@H]1C(=O)O [Ampicillin, ampicillin]", "val": 0.90}
{"molecule": "CC(=O)O[C@H]1C[C@@]2(C)[C@@H](C[C@@H](O)[C@H]3[C@@]4(C)CC[C@@H](O)[C@@H](C)[C@@H]4CC[C@@]32C)/C1=C(\\CCC=C(C)C)C(=O)O [Fusidic acid, fusidic acid]", "val": 0.90}

Field: next molecule
CCC[C@@H]1C[C@@H](C(=O)N[C@@H]([C@H]2O[C@H](SC)[C@H](O)[C@@H](O)[C@H]2O)[C@@H](C)O)N(C)C1 [Lincomycin, lincomycin] has a reported log10(MIC90) of 1.20
